Data credit: patent US10287288B2

Target: purified human plasma kallikrein (Homo sapiens)
Construct: Plasma prekallikrein is a zymogen of a trypsin-like serine protease
Sequence (P03952 391-638 limits assumed): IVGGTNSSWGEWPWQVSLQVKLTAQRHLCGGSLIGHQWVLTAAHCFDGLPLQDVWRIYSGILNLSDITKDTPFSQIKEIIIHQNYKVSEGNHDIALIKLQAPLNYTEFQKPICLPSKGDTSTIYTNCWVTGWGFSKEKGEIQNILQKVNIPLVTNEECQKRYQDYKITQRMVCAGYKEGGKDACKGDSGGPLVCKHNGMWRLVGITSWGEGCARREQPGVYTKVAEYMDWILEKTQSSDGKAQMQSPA
Sequence (P03952 20-390 partner limits assumed): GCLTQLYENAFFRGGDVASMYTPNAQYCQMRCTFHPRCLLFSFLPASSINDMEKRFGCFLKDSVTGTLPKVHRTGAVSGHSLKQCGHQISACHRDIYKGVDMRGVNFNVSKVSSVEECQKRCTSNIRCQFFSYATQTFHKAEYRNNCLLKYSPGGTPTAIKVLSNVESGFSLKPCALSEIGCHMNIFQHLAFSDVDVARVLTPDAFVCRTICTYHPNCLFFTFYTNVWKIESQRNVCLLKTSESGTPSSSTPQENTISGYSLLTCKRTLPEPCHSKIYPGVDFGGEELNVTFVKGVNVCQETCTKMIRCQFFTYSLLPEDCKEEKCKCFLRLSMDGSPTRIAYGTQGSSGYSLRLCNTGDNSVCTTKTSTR
Experiment: Plasma kallikrein inhibition assay (chromogenic substrate hydrolysis, Ki)
Conditions: substrate S-2302, pH 7.5
Let's look at some compounds and their measured Ki.
Quick note: give the figure in µM, leave out the unit.

[in] Any idea what its Ki is? The compound is `O=C1NCC/C=C/C[C@H](n2cnc(-c3cc(Cl)ccc3-n3cc(Cl)nn3)cc2=O)c2cc(ccn2)[C@H]2C[C@@H]12`
[out] 3.61

[in] Any idea what its Ki is? The compound is `O=C1NCCCCC[C@H](n2cnc(-c3cc(Cl)ccc3-n3cc(Cl)nn3)cc2=O)c2cc(ccn2)[C@H]2C[C@@H]12`
[out] 0.0814

Could you now look at the following compound, please?
[in] Any idea what its Ki is? The compound is CC(=O)N1CCCC2NC(=O)[C@H](C)CCC[C@H](n3cnc(-c4c(-n5cc(Cl)nn5)ccc(Cl)c4F)cc3=O)c3cccc(c3)C21 (single isomer, unassigned)
[out] 6.97
